The reported measurements were obtained from patent US7238813B2.

Readings of IC50 for the listed molecules
- Test system: TIE2 intracellular domain/c-fms extracellular domain (TIE2/c-fms) chimeric protein expressing mouse 3T3 cells (Homo sapiens)
- Construct: a TIE2 intracellular domain/c-fms extracellular domain (TIE2/c-fms) chimeric protein
- Sequence (Q02763 770-1124 limits assumed, change not shown): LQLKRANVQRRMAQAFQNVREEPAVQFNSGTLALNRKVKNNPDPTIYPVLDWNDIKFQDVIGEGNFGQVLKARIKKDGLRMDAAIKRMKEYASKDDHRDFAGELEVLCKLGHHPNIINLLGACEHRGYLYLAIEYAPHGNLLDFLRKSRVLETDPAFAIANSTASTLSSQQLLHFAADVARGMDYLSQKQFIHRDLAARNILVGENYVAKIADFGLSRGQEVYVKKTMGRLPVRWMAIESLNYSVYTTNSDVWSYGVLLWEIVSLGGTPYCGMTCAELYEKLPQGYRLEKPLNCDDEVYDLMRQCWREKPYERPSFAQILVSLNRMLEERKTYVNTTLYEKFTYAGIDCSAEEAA
- Assay name: TIE-2 autophosphorylation assay (TIE2-C), ELISA
- Condition info: TIE2/c-fms 3T3 cells, MCSF activation
- Procedure: TIE-2 Autophosphorylation Assay (TIE2-C) The TIE-2 autophosphorylation assay used an ELISA method and a TIE2 intracellular domain/c-fms extracellular domain (TIE2/c-fms) chimeric protein expressing mouse 3T3 cells. This assay measured the autophosphorylation level of TIE2 protein expressed in cells. […] The optical density at 450 nm derived from HRP catalyzed TMB was measured with an ARVO multilabel counter. […] The percent inhibition of activity was calculated relative to blank control wells. […]

# count of solved cases: 5
{"Sample smiles": "CC(=O)NCC(=O)Nc1nc2cc(Oc3ccc(NC(=O)Nc4cc(C(F)(F)F)ccc4F)cc3)ccc2[nH]1", "IC50": "< 100 nM"}
{"Sample smiles": "Cn1cnc(CC(=O)Nc2nc3cc(Oc4ccc(NC(=O)Nc5cc(C(F)(F)F)ccc5F)cc4)ccc3[nH]2)c1", "IC50": "< 100 nM"}
{"Sample smiles": "CS(=O)(=O)n1c(N)nc2ccc(Oc3ccc(NC(=O)Nc4cc(C(F)(F)F)ccc4F)cc3)cc21", "IC50": "< 100 nM"}
{"Sample smiles": "COC(=O)Nc1nc2ccc(Oc3ccc(NC(=O)Nc4cc(C(F)(F)F)ccc4Cl)cc3)cc2s1", "IC50": "< 100 nM"}
{"Sample smiles": "CC(=O)Nc1nc2ccc(Oc3ccc(NC(=O)Nc4cc(C(F)(F)F)ccc4F)nc3)cc2n1Cc1ccccc1", "IC50": "100 to 1000 nM"}

I have this molecule here, "O=C(Nc1ccc(Oc2ccc3[nH]c(NC(=O)OCc4ccccc4)nc3c2)cc1)Nc1cc(C(F)(F)F)ccc1F" , and I need its recorded IC50.
< 100 nM

I have this molecule here, "CCc1cccc(NC(=O)Nc2ccc(Oc3ccc4[nH]c(NC(=O)OC)nc4c3)cc2)c1" , and I need its recorded IC50.
100 to 1000 nM
